Record type: Ki measurement. Applies to: UniProt:P06276
property: Ki (µM)

| compound | target-or-system | unit-spec | observed-value |
| --- | --- | --- | --- |
| COc1ccc(-c2cc3cc4c(=O)c(C=O)coc4cc3o2)cc1 [Compound 2f] | UniProt:P06276 | µM | 3.9 |
| O=c1c(C=NNc2ccc(C(F)(F)F)cc2)coc2cc3oc(-c4cccc(Cl)c4)cc3cc12 [Compound 3d] | UniProt:P06276 | µM | 0.85 |
| O=Cc1coc2cc3oc(-c4cccc(F)c4)cc3cc2c1=O [Compound 2b] | UniProt:P06276 | µM | 1.7 |
| O=c1c(C=NNc2ccc(C(F)(F)F)cc2)coc2cc3oc(-c4cccc(F)c4)cc3cc12 [Compound 3b] | UniProt:P06276 | µM | 6.1 |
| COc1ccc(-c2cc3cc4c(=O)c(C=NNc5ccc(C(F)(F)F)cc5)coc4cc3o2)cc1 [Compound 3f] | UniProt:P06276 | µM | 5.4 |

----------
target-or-system: BChE (Homo sapiens, UniProt P06276)
Construct: purchased cloud-clone corp., purchased through BIOCOM Africa (Pty) Ltd. RPC348Hu0 2_100
Sequence (P06276 29-602): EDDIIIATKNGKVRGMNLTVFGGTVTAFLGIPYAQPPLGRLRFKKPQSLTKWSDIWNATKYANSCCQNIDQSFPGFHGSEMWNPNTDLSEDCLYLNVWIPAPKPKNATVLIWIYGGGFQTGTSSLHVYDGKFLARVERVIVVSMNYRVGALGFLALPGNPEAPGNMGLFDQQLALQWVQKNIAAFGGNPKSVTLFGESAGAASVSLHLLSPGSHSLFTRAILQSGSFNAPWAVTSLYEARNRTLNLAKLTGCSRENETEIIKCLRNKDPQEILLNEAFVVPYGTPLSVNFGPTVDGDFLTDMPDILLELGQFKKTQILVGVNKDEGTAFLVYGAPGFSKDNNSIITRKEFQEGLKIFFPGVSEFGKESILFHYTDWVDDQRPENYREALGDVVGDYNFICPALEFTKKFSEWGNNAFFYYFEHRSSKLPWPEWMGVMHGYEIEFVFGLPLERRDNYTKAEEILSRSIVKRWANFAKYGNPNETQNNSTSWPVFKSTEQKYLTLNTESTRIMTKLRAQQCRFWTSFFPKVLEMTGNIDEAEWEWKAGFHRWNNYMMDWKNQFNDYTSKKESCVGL
method-description: biochemical
condition-notes: Selectivity index IC50 (AChE)/IC50 (BChE)
property: SI AChE/BChE

| compound | observed-value |
| --- | --- |
| O=Cc1coc2cc3oc(-c4cccc(Cl)c4)cc3cc2c1=O [Compound 2d] | 1.54 |
| COc1ccc(-c2cc3cc4c(=O)c(C=NNc5ccc(C(F)(F)F)cc5)coc4cc3o2)cc1 [Compound 3f] | 0.56 |
| O=c1c(C=NNc2ccc(C(F)(F)F)cc2)coc2cc3oc(-c4ccc(F)cc4)cc3cc12 [Compound 3c] | 1.49 |
| O=Cc1coc2cc3oc(-c4cccc(F)c4)cc3cc2c1=O [Compound 2b] | 0.84 |
| O=Cc1coc2cc3oc(-c4ccc(Cl)cc4)cc3cc2c1=O [Compound 2e] | 1.61 |
| COc1cc(OC)cc(-c2cc3cc4c(=O)c(C=NNc5ccc(C(F)(F)F)cc5)coc4cc3o2)c1 [Compound 3g] | 1.12 |
| O=Cc1coc2cc3oc(-c4ccc(F)cc4)cc3cc2c1=O [Compound 2c] | 0.97 |
| O=c1c(C=NNc2ccc(C(F)(F)F)cc2)coc2cc3oc(-c4ccccc4)cc3cc12 [Compound 3a] | 0.70 |
